Attribution: patent US10759796B2

SYSTEM_UNDER_TEST: CXCR-4 transfected U87 cell line (U87.CXCR4) (Homo sapiens (Human))
PROTOCOL_DESCRIPTION: Intracellular CXCL-12-induced calcium mobilization assay (FLIPR)
Type: cell-based
CONDITIONS: U87.CXCR4 cells, CXCL-12 25-50 ng/mL; read-out: IC50 CXCL-12 Ca2+ flux U87.CXCR4+
pIC50: −log10 of the molar value.
pIC50 values, listed per item

Requested field: pIC50. Item: `Cc1cccnc1[C@@H]1CC(=O)C[C@H](c2cn3c(N4CCN(C)CC4)cccc3n2)N1C`
7.00 to 11.00

Requested field: pIC50. Item: `Cc1cccnc1[C@@H]1CCC[C@H](c2cn3c(N4C5CCC4CNC5)cccc3n2)N1C`
7.00 to 11.00

Requested field: pIC50. Item: `Cc1cccnc1[C@@H]1CCC[C@H](c2nc3ccccn3c2CCCN2CCOCC2)N1C`
6.00 to 7.00

Requested field: pIC50. Item: `Cc1cccnc1[C@@H]1CCC[C@H](c2cn3c(CCc4ccccn4)cccc3n2)N1C`
≤ 6.00

Requested field: pIC50. Item: `CC(C)N1CCN(c2cccc3nc([C@H]4CCC[C@@H](c5ncccc5Cl)N4C)c(Cl)n23)CC1`
≤ 6.00

* * *

PROTOCOL_DESCRIPTION: in vitro
CONDITIONS: human, Caco-2, pH 7.4
MEASUREMENT_TYPE: Papp B→A at 90 min, 10 μM

Solved entries:
> print(dat)
                        structure.as.smiles  reported.measurement
1  Cc1cccnc1[C@@H]1CCC[C@H](c2nc3cccc(N4CCN(C)CC4)n3c2Br)N1C(C)C  0.1 to 10 ×10⁻⁶ cm/s
2  CN1CCN(c2cccc3nc([C@H]4CCC[C@@H](c5ncccc5C5CC5)N4)c(Cl)n23)CC1   10 to 30 ×10⁻⁶ cm/s
3  Cc1cccnc1[C@@H]1CCC[C@H](c2nc3cccc(N4CCN(C(C)C)CC4)n3c2Br)N1C  0.1 to 10 ×10⁻⁶ cm/s

Requested field: Papp B→A at 90 min, 10 μM. Item: `Clc1cccnc1[C@@H]1CCC[C@H](c2cn3c(N4CCNC5(CC5)C4)cccc3n2)N1`
10 to 30 ×10⁻⁶ cm/s

Requested field: Papp B→A at 90 min, 10 μM. Item: `Cc1cccnc1[C@@H]1CCC[C@H](c2nc3cccc(N4CCN(C)CC4)n3c2COC2CC2)N1C`
10 to 30 ×10⁻⁶ cm/s

Requested field: Papp B→A at 90 min, 10 μM. Item: `CN1CC2CCC(C1)N2c1cccc2nc([C@H]3CCC[C@@H](c4ncccc4Cl)N3C)c(CO)n12`
10 to 30 ×10⁻⁶ cm/s

* * *

SYSTEM_UNDER_TEST: CXCR-4 transfected U87 cell line (U87.CXCR4) (Homo sapiens (Human), UniProt P61073)
Sequence (P61073 whole entry): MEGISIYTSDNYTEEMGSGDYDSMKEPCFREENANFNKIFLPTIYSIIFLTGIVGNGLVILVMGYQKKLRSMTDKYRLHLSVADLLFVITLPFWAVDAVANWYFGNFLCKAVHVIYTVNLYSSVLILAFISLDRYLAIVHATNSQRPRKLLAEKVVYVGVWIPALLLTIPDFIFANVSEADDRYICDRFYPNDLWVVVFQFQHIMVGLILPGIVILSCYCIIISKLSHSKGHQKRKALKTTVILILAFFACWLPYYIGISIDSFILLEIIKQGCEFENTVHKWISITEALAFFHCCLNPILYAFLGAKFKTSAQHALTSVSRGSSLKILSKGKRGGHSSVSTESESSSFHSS
PROTOCOL_DESCRIPTION: Intracellular CXCL-12-induced calcium mobilization assay (FLIPR)
CONDITIONS: U87.CXCR4 cells, CXCL-12 25-50 ng/mL; read-out: IC50 CXCL-12 Ca2+ flux U87.CXCR4+
MEASUREMENT_TYPE: IC50

Solved entries:
> print(dat)
                                   compound  measurement.type  reported.measurement
1  Cc1cccnc1[C@@H]1CCC[C@H](c2cn3c(N4C5CCC4CN(C)C5)cccc3n2)N1              IC50        0.01 to 100 nM
2  Cc1cccnc1[C@@H]1CCC[C@H](c2cn3c(-c4cccnc4)cccc3n2)N1C              IC50        0.01 to 100 nM
3  Cc1cccnc1[C@@H]1CCC[C@H](c2nc3cccc(N4CCN(C)CC4)n3c2COC(C)C)N1C              IC50        100 to 1000 nM

Requested field: IC50. Item: Cc1cccnc1[C@H]1CCC[C@@H](c2nc3ccccn3c2CCCN2CCN(C)CC2)N1C (stereo in doubt)
0.01 to 100 nM

Requested field: IC50. Item: `Cc1cccnc1[C@@H]1CCC[C@H](c2nc3cccc(N4CCN(C)CC4)n3c2CO)N1C`
0.01 to 100 nM
